tested on: Escherichia coli TOP10; experiment: shrunken log2 fold change of peptide-encoding DNA abundance (4.5 h post-induction vs induction); higher = less antimicrobial activity (less host growth inhibition); conditions: time post-induction: 4.5 h; library: site-saturation at positions 5, 18, 19, 20;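 note: peptides expressed intracellularly from a pBAD plasmid library in pooled LB shake-flask culture, induced with 0.3% L-arabinose, DNA abundance read by NGS, three biological replicates, DESeq2 with apeglm shrinkage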
measured.property: shrunken log2 fold change
Lab note: record the figure alone, no unit after it.

RRIRNRPPRLPRPRPRPIKFPRP :: -0.165
RRIRFRPPRLPRPRPRPDERPRP :: -0.0426
RRIRNRPPRLPRPRPRPHGVPRP :: 0.0154
RRIRVRPPRLPRPRPRPMFRPRP :: -0.048

// lookup shrunken log2 fold change for RRIRRRPPRLPRPRPRPGINPRP 0.016

Another sequence to check: RRIRYRPPRLPRPRPRPPRQPRP 0.0146

Another sequence to check: RRIRIRPPRLPRPRPRPPQQPRP 0.197

Another sequence to check: RRIRARPPRLPRPRPRPEFAPRP 0.727

Another sequence to check: RRIRQRPPRLPRPRPRPTSRPRP -0.0729

Another sequence to check: RRIRTRPPRLPRPRPRPEVQPRP 0.0183

Another sequence to check: RRIRFRPPRLPRPRPRPDHEPRP 0.193

Another sequence to check: RRIRDRPPRLPRPRPRPHYLPRP -0.159

Another sequence to check: RRIRCRPPRLPRPRPRPHHCPRP 0.00372

Another sequence to check: RRIRARPPRLPRPRPRPCMFPRP 0.0445

Another sequence to check: RRIRIRPPRLPRPRPRPMHKPRP -0.431
